MEASURED ON: glucokinase (GK) enzyme (Homo sapiens)
TEST: In-vitro glucokinase (GK) enzyme activation assay (coupled with glucose-6-phosphate dehydrogenase, absorbance at 340)
Format: biochemical
CONDITION: compound 10 uM; glucose 2.5 mM, ATP 1 mM; read-out: % of GK activity wrt DMSO
Description: The compound of the invention was incubated with glucokinase (GK) enzyme (0.2 units) for 10 minutes in assay buffer at 26° C. After incubation, addition of glucose-6-phosphate dehydrogenase (2.5 units), ATP (1 mM) and glucose (2.5 mM). Absorbance is measured at 340 nm for 15 minutes with 10 second interval using UV transparent plate in kinetic mode on Spectramax-190 at 30° C.
PROPERTY NAME: activity at 10 µM (%)

Answered examples (6):
COCC(C)Oc1cc(Oc2ccc(-c3nnc(C)o3)cc2)cc(C(=O)Nc2nc(C(=O)O)cs2)c1 (centres unmarked) [Example 2.17] | 350
COC[C@H](C)Oc1cc(Oc2ccc(-c3nnc(C)o3)cc2)cc(C(=O)Nc2ncc(C)s2)c1 [Example 2.11] | 243
C=CCOc1cc(Oc2ccc(-c3nnc(C)o3)cc2)cc(C(=O)Nc2ncc(C)s2)c1 [Example 2.14] | 215
COCC(C)Oc1cc(Oc2ccc(-c3nnc(C)o3)cc2)cc(C(=O)Nc2ncc(C(=O)O)s2)c1 (centres unmarked) [Example 2.18] | 260
COCC(C)Oc1cc(Oc2ccc(-c3nnc(C)o3)cc2)cc(C(=O)Nc2nc(C)cs2)c1 (centres unmarked) [Example 2.10] | 356
Cc1nnc(-c2ccc(Oc3cc(OCC(C)C)cc(C(=O)Nc4nccs4)c3)cc2)o1 [Example 2.5] | 278

P = COC[C@H](C)Oc1cc(Oc2ccc(-c3nnc(C)o3)cc2)cc(C(=O)Nc2nccs2)c1 [Example 2.1]
Q = C=CCCOc1cc(Oc2ccc(-c3nnc(C)o3)cc2)cc(C(=O)Nc2nc(C)cs2)c1 [Example 2.12]
Exercise: Task for the reader: decide whether P or Q has the larger activity at 10 µM. Pick one and reply with its label.
Key: P
(P: 282%, Q: 144%)

---

MEASURED ON: UniProtKB P35557
Sequence (P35557 1-465): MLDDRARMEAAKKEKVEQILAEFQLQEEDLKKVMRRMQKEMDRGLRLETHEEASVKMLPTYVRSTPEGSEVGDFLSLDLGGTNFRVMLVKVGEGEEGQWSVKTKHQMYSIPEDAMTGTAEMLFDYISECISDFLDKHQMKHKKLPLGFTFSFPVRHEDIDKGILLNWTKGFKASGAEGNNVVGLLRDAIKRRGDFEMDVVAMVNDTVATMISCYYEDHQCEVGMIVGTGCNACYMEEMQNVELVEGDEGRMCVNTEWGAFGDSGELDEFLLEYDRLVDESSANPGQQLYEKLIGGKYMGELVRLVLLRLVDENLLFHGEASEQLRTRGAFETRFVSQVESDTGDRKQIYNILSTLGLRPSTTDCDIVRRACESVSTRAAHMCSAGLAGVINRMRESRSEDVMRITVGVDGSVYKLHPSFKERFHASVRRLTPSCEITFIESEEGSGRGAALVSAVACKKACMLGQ
TEST: In-vitro glucokinase (GK) enzyme activation assay (coupled with glucose-6-phosphate dehydrogenase, absorbance at 340)
Format: biochemical
CONDITION: compound 1 uM; glucose 2.5 mM, ATP 1 mM; read-out: % of GK activity wrt DMSO
PROPERTY NAME: activity at 1 µM (%)

Below are worked cases with known answers.
COC[C@@H](C)Oc1cc(Oc2ccc(-c3nnc(C)o3)cc2)cc(C(=O)Nc2nccs2)c1 | 164
COC[C@H](C)Oc1cc(Oc2ccc(-c3nnc(C)o3)cc2)cc(C(=O)Nc2nccs2)c1 | 267

1 = Cc1nnc(-c2ccc(Oc3cc(OCC4CCC5(CC5)C4)cc(C(=O)Nc4nccs4)c3)cc2)o1 (stereo not shown)
2 = C=CCOc1cc(Oc2ccc(-c3nnc(C)o3)cc2)cc(C(=O)Nc2nccs2)c1
Exercise: I'm curious whether 1 or 2 has the smaller activity at 1 µM number. Which is it? Answer = label.
Key: 1
(1: 178%, 2: 284%)

---

MEASURED ON: glucokinase (GK) enzyme (Homo sapiens)
Sequence (P35557 1-465): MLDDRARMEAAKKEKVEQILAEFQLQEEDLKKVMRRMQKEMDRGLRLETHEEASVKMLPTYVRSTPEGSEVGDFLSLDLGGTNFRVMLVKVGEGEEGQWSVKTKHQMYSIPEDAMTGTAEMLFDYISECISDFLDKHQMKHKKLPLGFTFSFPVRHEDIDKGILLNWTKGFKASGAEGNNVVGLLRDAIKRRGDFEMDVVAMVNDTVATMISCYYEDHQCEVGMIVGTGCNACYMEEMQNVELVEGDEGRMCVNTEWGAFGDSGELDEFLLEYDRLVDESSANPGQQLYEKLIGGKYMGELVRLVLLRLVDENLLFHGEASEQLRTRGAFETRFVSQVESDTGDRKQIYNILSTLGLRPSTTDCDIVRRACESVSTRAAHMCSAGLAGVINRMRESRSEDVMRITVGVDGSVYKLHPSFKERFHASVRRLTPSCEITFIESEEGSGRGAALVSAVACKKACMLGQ
TEST: In-vitro glucokinase (GK) enzyme activation assay (coupled with glucose-6-phosphate dehydrogenase, absorbance at 340)
Type: biochemical
CONDITION: compound 0.1 uM; glucose 2.5 mM, ATP 1 mM; read-out: % of GK activity wrt DMSO
PROPERTY NAME: activity at 0.1 µM (%)

Cc1nnc(-c2ccc(Oc3cc(OCC4CCC5(CC5)C4)cc(C(=O)Nc4nccs4)c3)cc2)o1 (stereo not shown) | 134

a = Cc1nnc(-c2ccc(Oc3cc(OCC4CC4)cc(C(=O)Nc4nccs4)c3)cc2)o1
b = C=CCOc1cc(Oc2ccc(-c3nnc(C)o3)cc2)cc(C(=O)Nc2ncc(C)s2)c1
Exercise: Form field 'greater activity at 0.1 µM' accepts a or b ; which applies? Kindly give the label for the entry you pick.
Key: a
(a: 234%, b: 116%)

a = COCC(C)Oc1cc(Oc2ccc(-c3nnc(C)o3)cc2)cc(C(=O)Nc2nc(C)cs2)c1 (stereo not shown)
b = COCC(C)Oc1cc(Oc2cccc(-c3nnc(C)o3)c2)cc(C(=O)Nc2nccs2)c1 (stereo not shown)
c = C=CCCOc1cc(Oc2ccc(-c3nnc(C)o3)cc2)cc(C(=O)Nc2ncc(C)s2)c1
Exercise: Put the entries in order of activity at 0.1 µM, starting with the largest number. Write out the labels following the order that was asked for.
Key: a, b, c
(a: 310%, b: 179%, c: 112%)

a = COCC(C)Oc1cc(Oc2ccc(-c3nnc(C)o3)cc2)cc(C(=O)Nc2nccs2)c1 (stereo not shown)
b = COCC(C)Oc1cc(Oc2ccc(-c3nnc(CC(C)C)o3)cc2)cc(C(=O)Nc2nccs2)c1 (stereo not shown)
Exercise: // compare measured activity at 0.1 µM, left a , right b , return larger Kindly state the label of the option you pick.
Key: a

P = CCOC(=O)Cc1csc(NC(=O)c2cc(Oc3ccc(-c4nnc(C)o4)cc3)cc(OC(C)COC)c2)n1 (stereo not shown)
Q = Cc1nnc(-c2ccc(Oc3cc(OCC4CCCCC4)cc(C(=O)Nc4nccs4)c3)cc2)o1
R = CCOC(=O)c1cnc(NC(=O)c2cc(Oc3ccc(-c4nnc(C)o4)cc3)cc(OC(C)COC)c2)s1 (stereo not shown)
Exercise: Reorder the items by activity at 0.1 µM, least to greatest. Enter labels, ranked according to the request.
Key: R, Q, P
(R: 101%, Q: 146%, P: 288%)

---

MEASURED ON: UniProt P35557
TEST: In-vitro glucokinase (GK) enzyme activation assay (coupled with glucose-6-phosphate dehydrogenase, absorbance at 340)
CONDITION: GK activation; glucose 2.5 mM, ATP 1 mM
PROPERTY NAME: EC50 (nM)

C=CCOc1cc(Oc2ccc(-c3nnc(C)o3)cc2)cc(C(=O)Nc2nccs2)c1 | 64
Cc1nnc(-c2ccc(Oc3cc(OCC4CC4)cc(C(=O)Nc4nccs4)c3)cc2)o1 | 88
COC[C@H](C)Oc1cc(Oc2ccc(-c3nnc(C)o3)cc2)cc(C(=O)Nc2nccs2)c1 | 14

I = Cc1nnc(-c2ccc(Oc3cc(OCC4CCCCC4)cc(C(=O)Nc4nccs4)c3)cc2)o1
II = C=CCCOc1cc(Oc2ccc(-c3nnc(C)o3)cc2)cc(C(=O)Nc2nccs2)c1
III = Cc1nnc(-c2ccc(Oc3cc(OC(C)C4CC4)cc(C(=O)Nc4nccs4)c3)cc2)o1 (centres unmarked)
Exercise: Your job: order these 3 records by EC50, ascending. Arrange the labels as the request states and list them.
Key: III, II, I

I = Cc1nnc(-c2ccc(Oc3cc(OCC(C)C)cc(C(=O)Nc4nccs4)c3)cc2)o1
II = COCC(C)Oc1cc(Oc2ccc(-c3nnc(C)o3)cc2)cc(C(=O)Nc2nccs2)c1 (centres unmarked)
Exercise: Of the two listed items, I and II , which carries the larger EC50 figure? Refer to your chosen item by its label in the answer.
Key: I
